Listing of recorded Wnt reporter firefly/Renilla luciferase ratio by entry.
Test system: HEK293T (UBE3A T485A transfected, BAR Wnt reporter)
Assay: Wnt reporter firefly/Renilla luciferase ratio relative to plate median (fold (linear ratio)); higher = more Wnt/beta-catenin reporter activation
Conditions: concentration: 10 uM; 24 h
The full ranking holds about 1,100 compounds; the median of “Wnt reporter firefly/Renilla luciferase ratio relative to plate median” is about 1.1, and the highest 2% start at about 1.6. The sample as a whole holds a higher share of the highest values than the screen did.
readoutType: Wnt reporter firefly/Renilla luciferase ratio

• NC(=O)N1c2ccccc2C=Cc2ccccc21 [Carbamazepine] = 0.997
• Oc1ccc(O)cc1 [Hydroquinone] = 0.902
• O=C([O-])c1[nH]n(-c2ccc(S(=O)(=O)[O-])cc2)c(=O)c1/N=N/c1ccc(S(=O)(=O)[O-])cc1.[Na+].[Na+].[Na+] = 1.26
• C#C[C@]1(O)CC[C@H]2[C@@H]3CCc4cc(O)ccc4[C@H]3CC[C@@]21C = 1.12
